From: ChEMBL document CHEMBL1156969

Organism: Homo sapiens
Test: Selectivity ratio of Ki for human melatonin MT1 receptor to Ki for human melatonin MT2 receptor
# Ratio Ki per entry
Give the figure only, with no unit attached.

Param item = `CCOc1ccc(OC)cc1CCCNC(C)=O` ; retrieve measured Ratio Ki.
116

And for `COc1ccc(COc2ccc(OC)cc2CCCNC(C)=O)cc1` ?
97

Another molecule to check: `CCC(=O)NCCCc1ccc(OCc2ccccc2)c(OC)c1`
16.7

One more molecule: `COc1ccc(OCc2ccccn2)c(CCCNC(C)=O)c1`
1150

Consider next the molecule `CCCC(=O)NCCCc1cc(OC)ccc1OCc1ccccc1` in the same way.
1.14e+06

Subsequent entry: `COc1ccc(O)c(CCCNC(C)=O)c1`
8.22

Now the molecule `CCC(=O)NCCCc1cccc(OC)c1`
12

Another molecule to look at: `COc1ccc(OCc2ccccc2)c(CCCNC(C)=O)c1`
18700

Also, `COc1cc(CCCNC(C)=O)ccc1O` please.
20.5

* * *

So I've got Ki readings for Melatonin receptor type 1A (Homo sapiens), take a look.
Answer in nM, number only, no unit symbol.

{"columns": ["SUBSTANCE SMILES", "Ki, nM"],
 "data": [
  ["COc1cccc(CCCNC(C)=O)c1", 23.3],
  ["COc1cc(CCCNC(C)=O)ccc1OCc1ccccc1", 8980],
  ["COc1ccc(OCc2ccccc2)c(CCCNC(C)=O)c1", 879],
  ["CCCC(=O)NCCCc1cc(OC)ccc1OCc1ccccc1", 1170],
  ["CCC(=O)NCCCc1cccc(OC)c1", 85.4]
]}

GET /values?readout=Ki&item= `COc1ccc(OC)c(CCCNC(C)=O)c1`
1280

Queued: `COc1cc(CCCNC(C)=O)ccc1O`
257

What do you have for `CCC(=O)NCCCc1cc(OC)ccc1OCc1ccccc1` ?
263

* * *

Organism: Homo sapiens
Experiment: Selectivity ratio of Ki for human melatonin MT1 receptor to Ki for human melatonin MT2 receptor
Measured Ratio Ki by item
// no unit string in output, number only

Example entries and their recorded answers appear below.
{"columns": ["SUBSTANCE SMILES", "TEST RESULT"],
 "data": [
  ["COc1ccc(OC)c(CCCNC(C)=O)c1", 49.1],
  ["CCC(=O)NCCCc1cc(OC)ccc1OCc1ccccc1", 473000]
]}

Field: next molecule
State the recorded Ratio Ki for this entry: `COc1cc(CCCNC(C)=O)ccc1OCc1ccccc1`
130

* * *

Target protein (sequence): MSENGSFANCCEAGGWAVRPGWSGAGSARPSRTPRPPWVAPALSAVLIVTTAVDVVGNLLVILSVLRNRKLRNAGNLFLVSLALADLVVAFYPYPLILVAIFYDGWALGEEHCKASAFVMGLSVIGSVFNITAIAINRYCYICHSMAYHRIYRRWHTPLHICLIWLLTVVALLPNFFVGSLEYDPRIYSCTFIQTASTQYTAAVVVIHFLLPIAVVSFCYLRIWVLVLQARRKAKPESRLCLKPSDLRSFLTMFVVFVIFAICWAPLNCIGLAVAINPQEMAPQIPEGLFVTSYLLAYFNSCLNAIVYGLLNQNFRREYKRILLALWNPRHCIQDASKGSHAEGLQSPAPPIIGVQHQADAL
REPORTED METRIC: pKi
On this scale, pKi is minus log10 of a concentration expressed in M (mol/L).

{"columns": ["SUBSTANCE SMILES", "pKi"],
 "data": [
  ["CCOc1ccc(OC)cc1CCCNC(C)=O", 8.80],
  ["COc1cccc(CCCNC(C)=O)c1", 9.12],
  ["COc1cc(CCCNC(C)=O)ccc1OCc1ccccc1", 7.16]
]}

Which pKi is reported for this compound? `COc1ccc(OCCCc2ccccc2)c(CCCNC(C)=O)c1`
7.14
